assayName: qHTS for Inhibitors of Inflammasome Signaling: IL-1-beta AlphaLISA Primary Screen; note: % is set by controls: 0 for no effect and ±100 for the full control effect
conditionSummary: THP-1 LPS/ATP IL-1B secretion, 16 h; at 57.5 µM, hits give low values
Hit rate of the full screen: of about 360,000 compounds, about 17,000 (4.7%) were called active. About 5% were inconclusive and are not listed. The sample holds actives, similar compounds and a random draw of the others, so the mix is not that of the screen.
# activity change per record follows
recordedMetric: activity change (%)

INSERT INTO assay_data (compound, endpointunit, number) VALUES
  ('CCOc1ccc(CCNC(=O)CSc2cc(=O)n(C)c3ccc(Cl)cc23)cc1OCC', '%', 15.4),
  ('CC1(C)N=C(N)NC(Nc2ccc(Cl)cc2)=N1', '%', -77.7),
  ('COc1ccccc1NC1=NC(c2ccc(Cl)cc2)N=C(N)N1 (stereo not drawn)', '%', -13.3),
  ('Cc1nn(-c2ccccc2)c(Cl)c1/C=N/NC(=O)c1nn(C)cc1[N+](=O)[O-]', '%', -65.7),
  ('O=C(c1cccs1)n1nc(NCc2ccccc2)nc1NCc1ccccc1', '%', -57.7),
  ('Cc1nc(CN2CCN(C(=O)CCc3nnc(Cc4c[nH]c5ccccc45)o3)CC2)cs1', '%', 21.5),
  ('CC(C)CCOc1ccc(C(=O)Nc2cc(S(=O)(=O)N3CCOCC3)ccc2N2CCOCC2)cc1', '%', -18.6),
  ('O=C(Nc1nonc1-c1ccc(Cl)cc1)c1ccco1', '%', 26.6),
  ('CCN(CC)CCCNC(=O)CCn1nc(-c2ccc(Cl)cc2)ccc1=O', '%', 0.889),
  ('CN(C)c1ccc(CNC(=O)CN2C(=O)COc3ccc(S(=O)(=O)N4CCCC4)cc32)cc1', '%', 12.9),
  ('CCN(CCCNC(=O)CSc1cc(=O)n(C)c2cc(Cl)ccc12)Cc1ccccc1', '%', -66.3),
  ('CCOc1ccc(OCc2ccc(C(=O)Nc3cccc(C)n3)o2)cc1', '%', -69),
  ('CCC(C)CN1C(=O)CSCC1(C)C(=O)NCc1ccccc1 (stereo not drawn)', '%', -5.63),
  ('COCCNc1ccc(-c2n[nH]c(=O)c3ccccc23)cc1[N+](=O)[O-]', '%', 20.3),
  ('Nc1ccccc1Sc1cc(Cl)nnc1Cl', '%', 4.28),
  ('CC1CCN(CCCNC(=O)CN2C(=O)CSc3ccc(S(=O)(=O)N4CCCCC4)cc32)CC1', '%', -0.367),
  ('CCCC(=O)n1nc(NCc2ccc(OC)cc2)nc1NCc1ccc(OC)cc1', '%', 15.3),
  ('CCOC(=O)COc1nc(C)cc(C(F)(F)F)c1C#N', '%', -4.72);

====

assayName: qHTS for Inhibitors of Inflammasome Signaling: IL-1-beta AlphaLISA Primary Screen
conditionSummary: THP-1 LPS/ATP IL-1B secretion, 16 h; at 57.5 µM
Hit rate of the full screen: of about 360,000 compounds, about 17,000 (4.7%) were called active. Roughly 5% stayed inconclusive and do not appear here. Cut-off read from the data, not from the text of the source: active = activity change below about -50%; inconclusive = mostly about -30% to -49%; inactive = weaker than that. This is one part of a sample in which actives are shown more often than they occur.
Possible outcomes: yes (1) = active, no (0) = inactive

INSERT INTO results (compound, assignedclass) VALUES
  ('COc1ccc(-c2[nH]nc3c2C(c2ccncc2)C(C#N)=C(N)O3)cc1 (stereo not given)', 'no (0)'),
  ('Cc1cccc[n+]1CC(=O)c1ccccc1', 'no (0)'),
  ('O=C(Nc1nnc(S(=O)(=O)N2CCCCCC2)s1)c1cccc(Br)c1', 'no (0)'),
  ('COc1ccccc1C(=O)NC(CCSC)C(=O)N1CCN(C(C)=O)CC1 (stereo not given)', 'no (0)'),
  ('Cc1cccc(C(=O)NC(=S)N(C)C2CCCCC2)c1', 'no (0)'),
  ('COc1ccc(/C=C(\C#N)c2c[nH]c3ccccc23)cc1', 'yes (1)'),
  ('COc1ccc(C2N=C(N)N=C(N)N2c2ccccc2)cc1OC (stereo not given)', 'no (0)'),
  ('CC1C(=O)N(Cc2ccccc2)c2ccccc2N1C(=O)c1ccccc1 (stereo not given)', 'no (0)'),
  ('O=C(/C=C/c1ccc(F)cc1)NC(=S)NNC(=O)c1cccnc1', 'no (0)'),
  ('Cc1ccc(C(=O)C[n+]2cc(-c3ccccc3)n3c2CCCCC3)cc1', 'yes (1)'),
  ('O=c1c(-c2ccc(Cl)cc2)[n+]([O-])c2ccccc2n1OCc1nc2ccccc2[nH]1', 'no (0)'),
  ('O=C1C=C(NS(=O)(=O)c2ccccc2)C(=O)c2ccccc21', 'no (0)'),
  ('CCN(CC)CCCNC(=O)c1c(O)c2cc(F)cc3c2n(c1=O)C(C)CC3 (stereo not given)', 'no (0)'),
  ('CC1CC(C)CN(CC(=O)N2c3ccccc3CCc3ccccc32)C1 (stereo not given)', 'no (0)'),
  ('CC(C)C[C@@H](CO)N1CCN(Cc2ccc(O)cc2)CCC1=O', 'no (0)');

====

assayName: qHTS for Inhibitors of Inflammasome Signaling: IL-1-beta AlphaLISA Primary Screen
conditionSummary: THP-1 LPS/ATP IL-1B secretion, 16 h; at 57.5 µM
Out of some 360,000 compounds screened, about 17,000 (4.7%) were called active. Inconclusive results (about 5%) are left out. Cut-off read from the data, not from the text of the source: active = activity change below about -50%; inconclusive = mostly about -30% to -49%; inactive = weaker than that. The sample holds actives, similar compounds and a random draw of the others, so the mix is not that of the screen.
Possible outcomes: active, inactive

INSERT INTO results (molecule, assignedclass) VALUES
  ('CCOc1nc(OCC)nc(-n2cc(-c3ccccc3)nn2)n1', 'active'),
  ('Fc1ccc(-c2ccc(-c3nn4c(-c5ccco5)nnc4s3)o2)cc1', 'inactive'),
  ('Cc1nc2nc(C)c(CCC(=O)N3CCN(c4ccccc4)CC3)c(C)n2n1', 'inactive'),
  ('O=C1c2ccccc2-c2ccccc2NC1O (stereo not drawn)', 'inactive'),
  ('CCCCC(=O)N(C)c1c(CC)nc2c(OCc3ccc(Cl)cc3Cl)cccn12', 'active'),
  ('O=C(c1ccc(Oc2ccc(Cl)cc2)c([N+](=O)[O-])c1)N1CCCC1', 'inactive'),
  ('COc1cccc(CNC(=O)COC(=O)CN2C(=O)NC3(CCCCC3C)C2=O)c1 (stereo not drawn)', 'inactive'),
  ('CCOC(=O)N(C)c1c(CC)nc2c(OCc3ccccc3C(=O)OC)cccn12', 'inactive'),
  ('O=S(=O)(Nc1cc(Cl)ccc1N1CCOCC1)c1ccccc1Cl', 'inactive'),
  ('N#CCSc1nc2c(c(=O)n1Cc1ccccc1)C1(CCCC1)Cc1ccccc1-2', 'inactive'),
  ('COC(=O)Cn1nc(-c2ccccc2)c2cc(Cl)ccc21', 'inactive'),
  ('COc1ccc(CNC(=O)Cc2ccc(-c3ccccc3)cc2)cc1OC', 'inactive'),
  ('COc1ccc(CCNC(=S)N2CCN(S(=O)(=O)c3ccc(Cl)cc3)CC2)cc1', 'inactive'),
  ('CC1(C(=O)NCc2ccccc2)CSCC(=O)N1CCCn1ccnc1 (stereo not drawn)', 'inactive'),
  ('CCc1nc2c(OCc3ccc(Cl)cc3Cl)cccn2c1N(C)C(=O)C(C)C', 'active'),
  ('CCc1nc2c(OCc3cccc(OC)c3)cccn2c1N(C)C(=O)C(C)C', 'inactive'),
  ('Oc1cc2c(cc1O)CN(C(=S)NCCc1ccc(Cl)cc1)CCC2', 'active'),
  ('COc1ccc(N2C(=O)c3ccccc3NC2c2ccc(OC)c(CN3CCOCC3)c2)cc1 (stereo not drawn)', 'inactive'),
  ('CCCCNc1nc2c(c(=O)n(C)c(=O)n2C)n1Cc1cccc(OC)c1', 'active'),
  ('Cc1cccc(-n2c(SCC(N)=O)nc3c(c2=O)C2(CCCCC2)Cc2ccccc2-3)c1', 'active'),
  ('COc1ccc(-c2nn3c(-c4ccccc4)nnc3s2)cc1OC', 'active'),
  ('CCOC(=O)c1cc2ccccc2n1CC(=O)c1ccccc1', 'inactive'),
  ('CCn1c(=N)n(CC(=O)c2cccc(OC)c2)c2ccccc21', 'active');

====

assayName: qHTS for Inhibitors of Inflammasome Signaling: IL-1-beta AlphaLISA Primary Screen
conditionSummary: THP-1 LPS/ATP IL-1B secretion, 16 h; at 57.5 µM
Out of some 360,000 compounds screened, about 17,000 (4.7%) were called active. Roughly 5% stayed inconclusive and do not appear here. Rule as the data show it: active = activity change below about -50%; inconclusive = mostly about -30% to -49%; inactive = weaker than that. The full list was thinned out, with actives kept by preference.
Possible outcomes: 1 = active, -1 = inactive

INSERT INTO measurements (compound, assignedclass) VALUES
  ('CSc1ccccc1C(=O)Nc1cccc(C(C)=O)c1', -1),
  ('CCOc1ccc2[nH]c(=S)sc2c1', -1),
  ('COc1cccc(NC(=O)COC(=O)CCOc2ccccc2OC)c1', -1),
  ('CCOC(=O)c1sc(NC(=O)CCN2CCOCC2)c(C(=O)OCC)c1C', -1),
  ('CSc1ccccc1NC(=O)COC(=O)CCCOc1ccc(C)cc1', -1),
  ('COc1ccc(NS(=O)(=O)c2cccc(C(=O)NCCc3ccc(S(N)(=O)=O)cc3)c2)cc1', -1),
  ('OC(COc1ccccc1)CN1CCN(c2cccc(Cl)c2)CC1 (stereo not drawn)', -1),
  ('CCSc1nsc(NC(=O)Nc2cccc(C(C)=O)c2)n1', 1),
  ('O=C(/C(=C/c1cccc(Cl)c1)c1nc2ccccc2[nH]1)c1ccccc1', 1),
  ('Cc1noc(C)c1NC(=O)N(C)C[C@@H]1Oc2cc(Br)ccc2S(=O)(=O)N([C@@H](C)CO)C[C@H]1C', -1),
  ('CCC1=C(OC(=O)N(CC)CC)N2C(=O)OC(=NCC3CC3)[C@]2(C)[C@H]2C1=CC[C@H]1C(=O)N(CC(=O)OC)C(=O)[C@H]12', -1),
  ('COc1cc([N+](=O)[O-])ccc1NC(=O)COC(=O)CCOc1ccc(C)cc1', 1),
  ('CCCC[C@@H]1CN=C(N)N1CCCC', -1),
  ('CCCc1nnc(NC(=O)CCC(=O)N2CCN(S(=O)(=O)c3ccc(OC)cc3)CC2)s1', -1),
  ('CCc1nnc(NC(=O)c2cc(S(=O)(=O)N3CCN(CC)CC3)ccc2Cl)s1', -1),
  ('CC(C)(C)c1ccc(S(=O)(=O)NC(=O)C2(C)CCN2C(=O)CC2CC2)cc1 (stereo not drawn)', -1),
  ('CC(=O)c1cccc(NC(=S)N2CCCC2)c1', -1),
  ('CCC(=O)c1ccc(OCC(O)CN2CCN(c3cccc(C(F)(F)F)c3)CC2)cc1 (stereo not drawn)', -1),
  ('COc1ccc(OC)c(/C=C/C(=O)OCC(=O)Nc2ccc3c(c2)OCCO3)c1', -1),
  ('COc1ccc(C(=O)NCc2ccc(Cl)cc2)cc1S(=O)(=O)N1CCCC1', -1),
  ('CCOC(=O)Cc1csc(NC(=O)Nc2ccccc2)n1', 1),
  ('Nc1ncnc2c1ncn2[C@@H]1O[C@H](C(=O)N2CCSC2)[C@@H](O)[C@H]1O', -1),
  ('CCN(CC)CCCC(C)n1c2nc(=O)[nH]c(=O)c-2nc2cc(Cl)ccc21 (stereo not drawn)', 1),
  ('O=C(c1ccc(Cl)cc1)c1ccc(OCC(O)CN2CCCCC2)cc1 (stereo not drawn)', 1),
  ('C[C@@H]1CC2=C(C(=O)OC(C)(C)O2)[C@@H](C2CC2)O1', -1),
  ('CSc1nsc(NC(=O)Nc2ccccc2)n1', -1),
  ('CN(C)/C(=N\OC(=O)c1ccccc1)c1nonc1N', -1),
  ('OC(COc1ccc(Br)cc1)CN1CCCC1 (stereo not drawn)', -1);
